test name: Antiproliferative activity against human HLF assessed as growth inhibition after 72 hrs by MTT assay
measurement parameters: HLF cells
measurement name: GI50 at 72 h (µM)
Write the answer as a number in µM, unit excluded.

Some molecules with recorded GI50 at 72 h:
[[record]]
molecule = "COC1=C(OC)C(=O)C(CCCCCCCCCCn2cc(C[C@H](O)COCCOC[C@@H](O)Cc3ccc(-c4ccccc4)cc3)nn2)=C(C)C1=O"
measurement_unit = "µM"
experimental_value = 18.3

[[record]]
molecule = "O[C@H](COCCOC[C@@H](O)Cc1cn(-c2ccc3c(c2)OCCO3)nn1)Cc1ccc(-c2ccccc2)cc1"
measurement_unit = "µM"
experimental_value = 5.2

[[record]]
molecule = "COc1cccc2c1C(=O)c1c(O)c3c(c(O)c1C2=O)C[C@@](O)(C(=O)CO)C[C@@H]3O[C@H]1C[C@H](N)[C@H](O)[C@H](C)O1 [DOXORUBICIN]"
measurement_unit = "µM"
experimental_value = 0.33

[[record]]
molecule = "CC1=C(CCCCCCCCCCn2cc(C[C@H](O)COCCOC[C@@H](O)Cc3ccc(-c4ccccc4)cc3)nn2)C(=O)c2ccccc2C1=O"
measurement_unit = "µM"
experimental_value = 22.6


Per the record, COC1=C(C)C(=O)C(CCCCCCCCCCn2cc(C[C@H](O)COCCOC[C@@H](O)Cc3ccc(-c4ccccc4)cc3)nn2)=C(C)C1=O has GI50 at 72 h of 35.1

Looking up O[C@H](COCCOC[C@@H](O)Cc1cn(Cc2ccc3ccccc3c2)nn1)Cc1ccc(-c2ccccc2)cc1 , I found its GI50 at 72 h recorded as 19.8

What the record says about N#Cc1ccc(Cn2cc(C[C@H](O)COCCOC[C@@H](O)Cc3ccc(-c4ccccc4)cc3)nn2)cc1 : GI50 at 72 h is 36.6

###

test name: Antiproliferative activity against human HLF assessed as growth inhibition after 72 hrs by MTT assay
measurement parameters: HLF cells
measurement name: GI50 at 72 h (µM)
Output spec: scalar in µM, unitless text.

[[record]]
chem_smiles = "O[C@H](COCCOC[C@@H](O)Cc1cn(Cc2ccc(Oc3ccccc3)cc2)nn1)Cc1ccc(-c2ccccc2)cc1"
experimental_value = 22.8


Next up:
O[C@H](COCCOC[C@@H](O)Cc1cn(-c2cncc3ccccc23)nn1)Cc1ccc(-c2ccccc2)cc1 yielded GI50 at 72 h of 10.8

###

test name: Antiproliferative activity against human HLF assessed as growth inhibition after 72 hrs by MTT assay
measurement parameters: HLF cells
measurement name: GI50 at 72 h (µM)
Unit µM implied. Number only.

Previously resolved entries follow.
[[record]]
chem_smiles = "O[C@H](COCCOC[C@@H](O)Cc1cn(Cc2ccc(C(F)(F)F)cc2)nn1)Cc1ccc(-c2ccccc2)cc1"
measurement_name = "GI50 at 72 h"
measurement_unit = "µM"
experimental_value = 29.8

[[record]]
chem_smiles = "O=c1[nH]c2ccc(-n3cc(C[C@H](O)COCCOC[C@@H](O)Cc4ccc(-c5ccccc5)cc4)nn3)cc2s1"
measurement_name = "GI50 at 72 h"
measurement_unit = "µM"
experimental_value = 47.7


Attention now turns to another entry.
# molecule CCCCCCCCCC[C@H](O)COCCOC[C@@H](O)CCCCCCCCCCCCC1=C[C@H](C)OC1=O ; its GI50 at 72 h = 27.8
